FYI, the data here is from patent US10259810B2.

# TARGET_DESC: ΔF508-CFTR (Homo sapiens, UniProt P13569, DEL508-508)
# Construct: host or cells: CFBE41o-, doxycycline-inducible
# Sequence (P13569 with tags, fused parts or gaps DEL508-508): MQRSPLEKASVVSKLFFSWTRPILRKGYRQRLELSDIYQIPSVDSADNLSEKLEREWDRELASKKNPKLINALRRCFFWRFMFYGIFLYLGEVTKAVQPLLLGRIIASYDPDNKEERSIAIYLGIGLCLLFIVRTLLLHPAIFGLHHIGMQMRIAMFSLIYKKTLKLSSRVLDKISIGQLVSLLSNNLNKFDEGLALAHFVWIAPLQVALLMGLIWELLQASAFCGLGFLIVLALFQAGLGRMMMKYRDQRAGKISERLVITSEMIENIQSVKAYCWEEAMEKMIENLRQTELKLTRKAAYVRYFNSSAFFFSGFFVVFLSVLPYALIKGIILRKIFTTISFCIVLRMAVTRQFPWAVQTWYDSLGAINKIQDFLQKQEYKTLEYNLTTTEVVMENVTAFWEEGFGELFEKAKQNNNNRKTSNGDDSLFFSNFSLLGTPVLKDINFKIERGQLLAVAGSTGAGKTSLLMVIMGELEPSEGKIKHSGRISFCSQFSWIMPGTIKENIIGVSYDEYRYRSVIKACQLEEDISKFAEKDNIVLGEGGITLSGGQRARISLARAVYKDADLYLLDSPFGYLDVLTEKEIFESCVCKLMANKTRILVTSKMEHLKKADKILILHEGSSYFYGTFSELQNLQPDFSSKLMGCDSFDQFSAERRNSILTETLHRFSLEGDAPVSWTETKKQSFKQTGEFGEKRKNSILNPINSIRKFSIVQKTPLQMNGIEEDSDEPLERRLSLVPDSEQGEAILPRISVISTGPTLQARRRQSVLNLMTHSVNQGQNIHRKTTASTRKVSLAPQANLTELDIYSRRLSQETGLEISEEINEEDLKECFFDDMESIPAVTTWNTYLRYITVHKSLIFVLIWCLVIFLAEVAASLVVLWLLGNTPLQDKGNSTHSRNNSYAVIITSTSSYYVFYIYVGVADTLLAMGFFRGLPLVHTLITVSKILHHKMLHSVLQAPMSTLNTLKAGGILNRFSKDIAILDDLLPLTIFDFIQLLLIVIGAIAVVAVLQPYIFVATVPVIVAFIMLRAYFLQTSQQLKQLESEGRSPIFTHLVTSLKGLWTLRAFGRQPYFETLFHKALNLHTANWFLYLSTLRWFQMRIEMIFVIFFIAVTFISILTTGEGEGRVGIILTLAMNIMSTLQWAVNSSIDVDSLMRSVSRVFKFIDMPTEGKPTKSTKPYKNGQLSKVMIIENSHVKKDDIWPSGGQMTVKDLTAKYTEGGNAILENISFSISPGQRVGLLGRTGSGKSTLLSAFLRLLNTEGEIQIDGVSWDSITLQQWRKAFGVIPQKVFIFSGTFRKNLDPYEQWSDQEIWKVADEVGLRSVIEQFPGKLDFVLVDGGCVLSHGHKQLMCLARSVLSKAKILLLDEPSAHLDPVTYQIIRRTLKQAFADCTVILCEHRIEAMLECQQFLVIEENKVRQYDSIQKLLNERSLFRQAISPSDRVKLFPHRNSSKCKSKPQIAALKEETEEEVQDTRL
# PROTOCOL_SUMMARY: CFTR cell surface levels using HRP-tagged ΔF508-CFTR expressing CFBE cells, intrinsic corrector capacity
# Assay type: cell-based
# Set-up: concentration or dose not given beside the values
# CONDITION_DESCRIPTION: HRP-tagged ΔF508-CFTR expressing CFBE41o- cells; compound alone (intrinsic corrector capacity); 20 hours at 33° C.
Can you tell me % Activation for the items I'm about to list?
Numeric only. Scale: %

Ask: Give % Activation for `CC(C)N1CCC(c2cc(C(=O)NS(=O)(=O)N(C)C)nc3c2c(C2CCC2)nn3-c2ccc(F)cc2)CC1`
Result: 28.03

Ask: Give % Activation for `CCS(=O)(=O)NC(=O)c1cc(N2CCC(N3CCOCC3)CC2)c2c(C3CCC3)nn(-c3ccccc3)c2n1`
Result: 353.8

Ask: Give % Activation for CC(C)c1nn(-c2cccc(N3CCC(F)C3)c2)c2nc(C(=O)NS(C)(=O)=O)cc(-c3ccc(N4CCOCC4)cc3)c12 (stereo not shown)
Result: 457.3

Ask: Give % Activation for `COCCN(C)S(=O)(=O)NC(=O)c1cc(N2CCC(N3CCOCC3)CC2)c2c(C3CCC3)nn(-c3ccc(F)cc3)c2n1`
Result: 240.2

Ask: Give % Activation for `CS(=O)(=O)NC(=O)c1cc(N2CCCC3(CC3)C2)c2c(C3CCC3)nn(-c3ccccc3)c2n1`
Result: 208.5

Ask: Give % Activation for `COCCS(=O)(=O)NC(=O)c1cc(OCC2CCOCC2)c2c(C3CCC3)nn(-c3ccccc3)c2n1`
Result: 154.87

Ask: Give % Activation for `COc1ccc(-c2cc(C(=O)NS(C)(=O)=O)nc3c2c(C)nn3-c2cccc(C)c2)cc1`
Result: 145.5

Ask: Give % Activation for `COCC1CCN(c2cc(C(=O)NS(C)(=O)=O)nc3c2c(C2CCC2)nn3-c2ccnc(OC)c2)CC1`
Result: 227.5

Ask: Give % Activation for `COC1(C)CCN(c2cc(C(=O)NS(C)(=O)=O)nc3c2c(C(C)C)nn3-c2ccc(F)cc2)CC1`
Result: 51.395

Ask: Give % Activation for `CS(=O)(=O)NC(=O)c1cc(N2CCC(N3CCOCC3)CC2)c2c(C3CCC3)nn(-c3ccc(C(F)(F)F)cc3)c2n1`
Result: 234.9

Ask: Give % Activation for `CC(C)c1nn(-c2ccc(F)cc2)c2nc(C(=O)NS(C)(=O)=O)cc(N3CCC(C4CCN(C)CC4)CC3)c12`
Result: 376.35

Ask: Give % Activation for `CCOC(=O)N1CCN(c2cc(C(=O)NS(=O)(=O)N3CCOCC3)nc3c2c(C2CCC2)nn3-c2ccc(F)cc2)CC1`
Result: 345.1

Ask: Give % Activation for `CS(=O)(=O)NC(=O)c1cc(N2CCS(=O)(=O)CC2)c2c(C3CCC3)nn(-c3ccccc3)c2n1`
Result: 121.3

Ask: Give % Activation for `COCCN1CCN(c2cc(C(=O)NS(C)(=O)=O)nc3c2c(C(C)C)nn3-c2ccc(F)cc2)CC1`
Result: 138.95

Ask: Give % Activation for `COC1CCN(c2cc(C(=O)NS(=O)(=O)CC(F)(F)F)nc3c2c(C2CCC2)nn3-c2ccccc2)CC1`
Result: 190.4

Ask: Give % Activation for `O=C(NS(=O)(=O)C1CC1)c1cc(N2CCC(N3CCN(C4CC4)CC3)CC2)c2c(C3CCC3)nn(-c3ccccc3)c2n1`
Result: 347

Ask: Give % Activation for `CC(C)c1nn(-c2cccc(N3CC(C)(C)C3)c2)c2nc(C(=O)NS(C)(=O)=O)cc(-c3ccc(N4CCOCC4)cc3)c12`
Result: 379.67

Ask: Give % Activation for `COC1CCN(C2CCN(c3cc(C(=O)NS(=O)(=O)N4CC(F)C4)nc4c3c(C3CCC3)nn4-c3ccc(F)cc3)CC2)CC1`
Result: 236.13

Ask: Give % Activation for CS(=O)(=O)NC(=O)c1cc(N2CCC(N3CCCC(F)C3)CC2)c2c(C3CCC3)nn(-c3ccc(F)cc3)c2n1 (stereo not shown)
Result: 312.2

Ask: Give % Activation for `CC(C)c1nn(-c2ccc(F)cc2)c2nc(C(=O)NS(C)(=O)=O)cc(OCCN(C(C)C)C3COC3)c12`
Result: 149

Ask: Give % Activation for `COCC1CCN(c2cc(C(=O)NS(=O)(=O)N3CCN(C)CC3)nc3c2c(C2CCC2)nn3-c2ccccc2)CC1`
Result: 180.65

Ask: Give % Activation for `COC1CCN(C2CCN(c3cc(C(=O)NS(C)(=O)=O)nc4c3c(C3CCC3)nn4-c3ccc(F)cc3)CC2)CC1`
Result: 307.2

Ask: Give % Activation for `CC(=O)Nc1ccc(-c2cc(C(=O)NS(C)(=O)=O)nc3c2c(C(C)C)nn3C2CCCCC2)cc1`
Result: 280.9

Ask: Give % Activation for O=C(NS(=O)(=O)C1CCOC1)c1cc(N2CCC(CN3CCOCC3)CC2)c2c(C3CCC3)nn(-c3ccc(F)cc3)c2n1 (stereo not shown)
Result: 242.05

Ask: Give % Activation for `COCC1CCN(c2cc(C(=O)NS(=O)(=O)c3cn(C)c(C)n3)nc3c2c(C2CCC2)nn3-c2ccccc2)CC1`
Result: 232.7

Ask: Give % Activation for `COC(C)(C)C1CCN(c2cc(C(=O)NS(C)(=O)=O)nc3c2c(C(C)C)nn3-c2ccc(F)cc2)CC1`
Result: 322.15

Ask: Give % Activation for `COCC1CCN(c2cc(C(=O)N3CCCCS3(=O)=O)nc3c2c(C2CCC2)nn3-c2ccccc2)CC1`
Result: 89.495

Ask: Give % Activation for `CCS(=O)(=O)NC(=O)c1cc(N2CCC(N3CCCCC3)CC2)c2c(C3CCC3)nn(-c3ccc(F)cc3)c2n1`
Result: 295.4
